Target Under Test: β-secretase (BACE) (Homo sapiens)
Construct: purchased Panvera
Sequence (P56817 46-501): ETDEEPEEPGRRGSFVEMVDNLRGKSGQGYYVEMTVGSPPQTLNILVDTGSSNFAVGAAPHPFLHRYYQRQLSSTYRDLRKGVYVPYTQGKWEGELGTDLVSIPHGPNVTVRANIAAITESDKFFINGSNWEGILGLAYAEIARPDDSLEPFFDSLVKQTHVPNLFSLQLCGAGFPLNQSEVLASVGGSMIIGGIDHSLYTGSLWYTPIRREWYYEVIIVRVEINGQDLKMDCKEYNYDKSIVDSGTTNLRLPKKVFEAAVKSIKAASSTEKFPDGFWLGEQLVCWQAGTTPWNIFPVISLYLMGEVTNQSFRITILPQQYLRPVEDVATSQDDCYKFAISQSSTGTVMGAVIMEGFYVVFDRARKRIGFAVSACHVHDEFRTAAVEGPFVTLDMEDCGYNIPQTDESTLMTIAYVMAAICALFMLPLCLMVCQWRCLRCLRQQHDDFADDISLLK
Procedure Text: BACE FS1% Inhibition Assay (Example 160)
Format: biochemical
Test Settings: 0.3 μM test compound
Metric Name: % Inhibition (FS) (%)

compound=CC(=O)N1CCC(C(=O)NCCN2Cc3cc(-c4ccccc4C)ccc3N=C2N)CC1 metric_name="% Inhibition (FS)" units_symbol=% inequality_operator=< recorded_measurement=30
compound=COc1ccccc1-c1ccc2c(c1)CN([C@@H](CCC(=O)N(C)Cc1cnn(-c3ccccc3)c1)C1CCCCC1)C(N)=N2 metric_name="% Inhibition (FS)" units_symbol=% inequality_operator== recorded_measurement=33
compound=NC1=Nc2ccc(-c3cnc4ccccc4c3)cc2CN1CCNC(=O)C1CCCC1 metric_name="% Inhibition (FS)" units_symbol=% inequality_operator=< recorded_measurement=30
compound="CCCCC(CC)C(=O)NCCN1Cc2cc(-c3cnc4ccccc4c3)ccc2N=C1N (stereo not shown)" metric_name="% Inhibition (FS)" units_symbol=% inequality_operator== recorded_measurement=33
compound=CCCC(=O)NCCN1Cc2cc(-c3ccc4ccccc4c3)ccc2N=C1N metric_name="% Inhibition (FS)" units_symbol=% inequality_operator== recorded_measurement=37
compound="COC1CCCC(C(=O)NCCN2Cc3cc(C4=CCCC4)ccc3N=C2N)C1 (stereo not shown)" metric_name="% Inhibition (FS)" units_symbol=% inequality_operator=< recorded_measurement=30
compound=CN(C(=O)CC[C@@H](C1CCCCC1)N1Cc2ccc(Oc3ccccc3)cc2N=C1N)C1CCCCC1 metric_name="% Inhibition (FS)" units_symbol=% inequality_operator== recorded_measurement=8
compound=NC1=Nc2ccc(-c3ccccc3Cl)cc2CN1CCNC(=O)CCC(F)(F)F metric_name="% Inhibition (FS)" units_symbol=% inequality_operator== recorded_measurement=39
compound=CC(C)CCC(=O)NCCN1Cc2cc(-c3cnc4ccccc4c3)ccc2N=C1N metric_name="% Inhibition (FS)" units_symbol=% inequality_operator== recorded_measurement=35
compound="CCCC(CCC)C(=O)NCC(C1CCCCC1)N1Cc2cc(Oc3ccccc3)ccc2N=C1N (stereo not shown)" metric_name="% Inhibition (FS)" units_symbol=% inequality_operator=< recorded_measurement=30
compound="CN(C(=O)CCC(C1CCCCC1)N1Cc2cc(Oc3ccccc3)ccc2N=C1N)C1CCC(c2nn[nH]n2)CC1 (stereo not shown)" metric_name="% Inhibition (FS)" units_symbol=% inequality_operator=< recorded_measurement=30
compound="CC(C)C(CNC(=O)C12CC3CC(CC(C3)C1)C2)N1Cc2cc(Oc3ccccc3)ccc2N=C1N (stereo not shown)" metric_name="% Inhibition (FS)" units_symbol=% inequality_operator== recorded_measurement=106
compound=NC1=Nc2ccc(Oc3ccccc3)cc2CN1CCNC(=O)C1(c2ccc(Cl)cc2)CCCC1 metric_name="% Inhibition (FS)" units_symbol=% inequality_operator== recorded_measurement=65
compound="CN(C(=O)CCC(C1CCCCC1)N1Cc2cc(Oc3ccccc3)ccc2N=C1N)C1CCC(C(=O)OCc2ccccc2)CC1 (stereo not shown)" metric_name="% Inhibition (FS)" units_symbol=% inequality_operator=< recorded_measurement=30
compound=CC(=O)N1CCC(C(=O)NCCN2Cc3cc(-c4ccccc4)ccc3N=C2N)CC1 metric_name="% Inhibition (FS)" units_symbol=% inequality_operator=< recorded_measurement=30
compound="COc1cccc(F)c1-c1ccc2c(c1)CN(CCNC(=O)C1CCC(C(F)(F)F)CC1)C(N)=N2 (stereo not shown)" metric_name="% Inhibition (FS)" units_symbol=% inequality_operator=< recorded_measurement=30
